- SYSTEM: human 26S proteasome, trypsin-like (T-L) activity (Homo sapiens, UniProt Q99436)
- Sequence (Q99436 44-277): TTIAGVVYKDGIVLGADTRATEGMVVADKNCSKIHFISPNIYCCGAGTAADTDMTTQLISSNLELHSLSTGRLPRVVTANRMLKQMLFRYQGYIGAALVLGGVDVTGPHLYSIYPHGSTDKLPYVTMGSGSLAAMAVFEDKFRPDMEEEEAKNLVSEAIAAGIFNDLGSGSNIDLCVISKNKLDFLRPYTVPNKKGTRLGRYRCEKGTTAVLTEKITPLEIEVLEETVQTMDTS
pIC50: −log10 of the molar value.
compounds and their reported pIC50
ASSAY_ENDPOINT: pIC50

INSERT INTO measurements (compound, assay_endpoint, recorded_value) VALUES
  ('C[C@@]12OC(=O)[C@]1([C@@H](O)[C@@H]1C=CCCC1)NC(=O)[C@@H]2CCCCl [compound 54, (−)-homosalino]', 'pIC50', 6.90),
  ('C[C@@]12OC(=O)[C@]1([C@@H](O)[C@@H]1C=CCCC1)NC(=O)[C@@H]2CCCl [1a, (−)-salino A]', 'pIC50', 7.43);
